- EXPERIMENT: gradient 5% acetonitrile 3 min, to 50% in 2 min, to 85% in 15 min, held 3 min, 100 µL/min
- MEASUREMENT_SETUP: column: Zorbax Extend-C18 2.1 x 50 mm; eluents: water / acetonitrile, 0.1% formic acid
Classify as follows. Reported RP-LC retention time greater than or equal to 1000 s: criterion met. Reported RP-LC retention time below: criterion not met.

**Q:** Is RP-LC retention time for Cc1ccc(CNC(=O)c2cc(C)no2)cc1 at or above 1000 s?
**A:** criterion not met

**Q:** Is RP-LC retention time for CCCCN1C(=O)C(C)(C(=O)Nc2ccc(OC)c(Cl)c2)Oc2cccnc21 (centres undefined) at or above 1000 s?
**A:** criterion met

**Q:** Is RP-LC retention time for CCOC(=O)c1nn(-c2ccc(F)cc2)c(=O)c2c(NC(=O)C3CCCCC3)scc12 at or above 1000 s?
**A:** criterion met

**Q:** Is RP-LC retention time for CCc1nc(-c2csc(S(=O)(=O)N3CCCC(C(=O)Nc4c(C)cccc4CC)C3)c2)no1 (centres undefined) at or above 1000 s?
**A:** criterion met

**Q:** Is RP-LC retention time for O=S(=O)(/C=C/c1ccccc1)NCC1CCN(Cc2ccsc2)CC1 at or above 1000 s?
**A:** criterion not met

**Q:** Is RP-LC retention time for Cc1nc2nc(-c3ccccc3)nn2c(C)c1CC(=O)N(CCO)Cc1ccccc1 at or above 1000 s?
**A:** criterion not met

**Q:** Is RP-LC retention time for Cc1noc2ncnc(N3CCCC(C(=O)N4CCN(Cc5ccc6c(c5)OCO6)CC4)C3)c12 (centres undefined) at or above 1000 s?
**A:** criterion not met

**Q:** Is RP-LC retention time for COc1ccc(NC(=O)c2cc(C)n3nc(-c4ccco4)cc3n2)cc1F at or above 1000 s?
**A:** criterion met

**Q:** Is RP-LC retention time for O=C(NCCc1csc(-c2cccs2)n1)C1CCN(S(=O)(=O)Cc2ccccc2)CC1 at or above 1000 s?
**A:** criterion not met

* * *

Assignment: determine reported RP-LC retention time for the given compounds.
- EXPERIMENT: gradient 5% acetonitrile 3 min, to 50% in 2 min, to 85% in 15 min, held 3 min, 100 µL/min
- MEASUREMENT_SETUP: column: Zorbax Extend-C18 2.1 x 50 mm; eluents: water / acetonitrile, 0.1% formic acid
State the answer as a number, implicitly in s.

RP-LC retention time measured on Clc1ccc(Nc2c(-c3cccc(Cl)c3)nc3ccc(Cl)cn23)cc1 = 1140

RP-LC retention time measured on Cc1cccc(-c2noc(Cc3nnc(-c4ccccc4)o3)n2)c1 = 1030

RP-LC retention time measured on COc1ccc(-n2ccn3c(CCC(=O)N4CCN(c5ccccn5)CC4)nnc3c2=O)cc1 = 663

RP-LC retention time measured on Cc1nc2ccn(Cc3cccnc3)c(=O)c2cc1C(=O)N1CCOCC1 = 552

RP-LC retention time measured on Cc1ccnc(N2CCC(C(=O)Nc3ccc(Br)cc3F)CC2)n1 = 811

RP-LC retention time measured on COc1ccc(NC(=O)N(C)CC2CCOCC2)cc1Cl = 712

RP-LC retention time measured on CCn1cc(C)c(C(=O)O)c1CC(=O)Nc1ccc(Cl)cc1 = 1010

RP-LC retention time measured on CCCNC(=O)N1CCc2nc(-c3ccccc3)ncc2C1 = 751

RP-LC retention time measured on O=C(Cc1cccs1)N1CCCC1c1nc(-c2cccc(Cl)c2)no1 (stereo not given) = 1050

RP-LC retention time measured on Cc1ccc(-n2c(=O)c3sccc3n(Cc3nc(-c4ccc(Br)cc4)no3)c2=O)cc1 = 1110

* * *

- EXPERIMENT: gradient 5% acetonitrile 3 min, to 50% in 2 min, to 85% in 15 min, held 3 min, 100 µL/min
- MEASUREMENT_SETUP: column: Zorbax Extend-C18 2.1 x 50 mm; eluents: water / acetonitrile, 0.1% formic acid
EXPERIMENTAL_ENDPOINT: RP-LC retention time (s)
State the answer as a number, implicitly in s.

RP-LC retention time measured on Cc1cccc(-c2nc(-c3ccc(-n4cccn4)nc3)no2)c1 = 1330

RP-LC retention time measured on O=C(Cc1ccc(NC(=O)c2ccc(F)cc2Cl)cc1)NC1CC1 = 681

RP-LC retention time measured on COc1ccc(-c2cc3c(=O)n(Cc4nc(-c5ccccc5OC)oc4C)ccn3n2)cc1 = 975

RP-LC retention time measured on Cc1cc(N2CCN(C)CC2)nc2ccc(NC(=S)N(C)C3CCCCC3)cc12 = 583

RP-LC retention time measured on CCn1nc(C)n2cc(S(=O)(=O)NCc3cccc(C)c3)cc2c1=O = 882

* * *

Assignment: determine reported RP-LC retention time for the given compounds.
- EXPERIMENT: gradient 5% acetonitrile 3 min, to 50% in 2 min, to 85% in 15 min, held 3 min, 100 µL/min
- MEASUREMENT_SETUP: column: Zorbax Extend-C18 2.1 x 50 mm; eluents: water / acetonitrile, 0.1% formic acid
Kindly format the answer as number then unit.

RP-LC retention time measured on O=C(c1ccc(Cn2c(=O)c3cccn3c3cccnc32)o1)N1CCN(c2ccccn2)CC1 = 615 s

RP-LC retention time measured on Cn1nc(C2CCN(C(=O)C3CCCO3)CC2)c2c1CCOC2 (stereo not given) = 586 s

RP-LC retention time measured on COCCCNc1ncc(C(=O)O)c(-c2ccccc2)n1 = 804 s

RP-LC retention time measured on CN(C)c1ccc(CNC(=O)c2cc(=O)n3c(nc4ccccc43)s2)cc1 = 805 s

RP-LC retention time measured on CCN1CCN(c2cc(C)c3cc(NC(=S)N4CCC(N5CCCCC5)CC4)ccc3n2)CC1 = 488 s

* * *

- EXPERIMENT: gradient 5% acetonitrile 3 min, to 50% in 2 min, to 85% in 15 min, held 3 min, 100 µL/min
- MEASUREMENT_SETUP: column: Zorbax Extend-C18 2.1 x 50 mm; eluents: water / acetonitrile, 0.1% formic acid
EXPERIMENTAL_ENDPOINT: RP-LC retention time (s)
State the answer as a number, implicitly in s.

RP-LC retention time measured on Cc1ccc(C(C)NC(=O)c2ccc(-c3cccnc3)nc2)c(C)c1 (stereo not given) = 745

RP-LC retention time measured on Cc1noc(C)c1CNC(=O)c1cc(-c2ccccc2)n[nH]1 = 706

RP-LC retention time measured on Cc1ccc2nc(NC(=O)CSc3nnc(CNC(=O)c4ccco4)o3)sc2c1 = 705

RP-LC retention time measured on Cc1cc(NC(=O)c2nc3ccccc3s2)sn1 = 809

RP-LC retention time measured on CCOc1ccccc1CNC(=O)C1CCN(c2nc(CC)nc3csc(C)c23)CC1 = 1030

RP-LC retention time measured on COCCN1CCn2cc(S(=O)(=O)Nc3ccc(F)c(F)c3)cc2C1=O = 733

RP-LC retention time measured on Cc1cc(C)c(C)c(S(=O)(=O)N2CCC3(CCN(c4cccnc4)C3)C2)c1C (stereo not given) = 762

RP-LC retention time measured on CCn1c(=O)sc2cc(S(=O)(=O)N3CCC(C(=O)NCc4ccccc4Cl)CC3)ccc21 = 905

RP-LC retention time measured on O=C(NCCN1CCOCC1)c1ccc(-c2c(-c3ccc(F)cc3)ncn2C2CCCC2)o1 = 592

RP-LC retention time measured on COCCn1c(SCc2nc(-c3ccc(OC)cc3)no2)nc2cc3c(cc2c1=O)OCO3 = 1020

RP-LC retention time measured on Cc1ccc(S(=O)(=O)Nc2ccc(-c3cn4ccc(C)nc4n3)cc2)c(C)c1 = 679

RP-LC retention time measured on O=c1n(Cc2ccc(Cl)cc2)nc2c(S(=O)(=O)N3CCc4ccccc4C3)cccn12 = 1020

RP-LC retention time measured on Clc1cccc(CN2CCN(c3cnn4c(C5CC5)nnc4c3)CC2)c1 = 750

RP-LC retention time measured on CS(=O)(=O)N(Cc1ccccn1)C1CN(C(=O)C2CCC2)C1 = 603

RP-LC retention time measured on Fc1ccc(Cc2nc(-c3cccc(-c4ccn[nH]4)c3)no2)cc1 = 925

RP-LC retention time measured on O=C1CCCN1CCCN1C(=O)[C@H]2CN(Cc3ccccc3Cl)C[C@H]2C1=O = 596

RP-LC retention time measured on Cc1cc(-c2nnc(C3CCC3)o2)c(C)n1CC(=O)NCc1ccccc1F = 858

RP-LC retention time measured on Oc1c(Cl)cc(Cl)c2cccnc12 = 1020

RP-LC retention time measured on O=C(CN1C(=O)C(C(=O)N2CCCC2)Sc2ccccc21)NC1CCCCCCC1 (stereo not given) = 1060

RP-LC retention time measured on CCc1cc(C(=O)Nc2cccc(F)c2)nc2ccnn12 = 998
